Data provenance: ChEMBL document CHEMBL1128224

# STUDY_TARGET: Opioid receptors; delta & kappa (Homo sapiens) (UniProt P41145+P41143)
# Sequence (P41143 whole entry, looked up): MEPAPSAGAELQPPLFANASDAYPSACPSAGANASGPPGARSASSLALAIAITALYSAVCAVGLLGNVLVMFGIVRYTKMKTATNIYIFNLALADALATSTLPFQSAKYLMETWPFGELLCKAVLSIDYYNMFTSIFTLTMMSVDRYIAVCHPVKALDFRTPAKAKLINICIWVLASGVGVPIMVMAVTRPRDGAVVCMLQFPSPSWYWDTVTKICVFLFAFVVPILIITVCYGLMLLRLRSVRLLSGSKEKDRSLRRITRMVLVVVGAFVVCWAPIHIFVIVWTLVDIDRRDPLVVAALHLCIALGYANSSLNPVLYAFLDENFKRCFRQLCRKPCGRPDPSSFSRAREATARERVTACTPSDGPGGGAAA
# Sequence (P41145 whole entry, looked up): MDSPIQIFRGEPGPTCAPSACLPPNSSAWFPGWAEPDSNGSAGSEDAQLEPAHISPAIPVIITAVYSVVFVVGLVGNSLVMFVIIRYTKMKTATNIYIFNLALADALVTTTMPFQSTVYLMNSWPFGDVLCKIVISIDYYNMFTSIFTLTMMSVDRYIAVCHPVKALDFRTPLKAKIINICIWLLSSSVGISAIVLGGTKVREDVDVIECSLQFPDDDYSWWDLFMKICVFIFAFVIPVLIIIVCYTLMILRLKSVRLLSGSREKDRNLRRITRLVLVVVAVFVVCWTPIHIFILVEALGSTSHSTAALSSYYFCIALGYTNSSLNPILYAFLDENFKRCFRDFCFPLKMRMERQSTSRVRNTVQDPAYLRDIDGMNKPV
# EXPERIMENT_DESCRIPTION: Selectivity as the ratio of IC50 value against delta receptor to that of kappa receptor.
# Type: protein assay

- COMPOUND: "NCCC[C@@H](NC(=O)c1cccc2c3c([nH]c12)[C@@H]1Oc2c(O)ccc4c2C12CCN(CC1CC1)C(C4)[C@]2(O)C3)C(=O)O (stereo partly drawn)"
  Selectivity: 63
- COMPOUND: "NCCCC[C@@H](NC(=O)c1cccc2c3c([nH]c12)[C@@H]1Oc2c(O)ccc4c2C12CCN(CC1CC1)C(C4)[C@]2(O)C3)C(=O)O (stereo partly drawn)"
  Selectivity: 20
- COMPOUND: "O=C(O)c1cccc2c3c([nH]c12)[C@@H]1Oc2c(O)ccc4c2C12CCN(CC1CC1)C(C4)[C@]2(O)C3 (stereo partly drawn)"
  Selectivity: 231

====

# STUDY_TARGET: UniProtKB P97266
# Sequence (P97266 whole entry): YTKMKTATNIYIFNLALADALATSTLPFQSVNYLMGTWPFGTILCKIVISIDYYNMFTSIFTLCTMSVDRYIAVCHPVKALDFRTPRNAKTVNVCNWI
# EXPERIMENT_DESCRIPTION: IC50 ratio was measured on Morphine(mu) in the guinea pig ileal longitudinal muscle(GPI) preparation
# Type: tissue-based
# REPORTED_CONDITIONS: Muscle tissue
Each entry below carries its recorded IC50 ratio.
OBSERVED_PROPERTY: IC50 ratio

- COMPOUND: "NCCC[C@@H](NC(=O)c1cccc2c3c([nH]c12)[C@@H]1Oc2c(O)ccc4c2C12CCN(CC1CC1)C(C4)[C@]2(O)C3)C(=O)O (stereo partly specified)"
  MEAS_VALUE: 3
- COMPOUND: "O=C(O)C[C@@H](NC(=O)c1cccc2c3c([nH]c12)[C@@H]1Oc2c(O)ccc4c2C12CCN(CC1CC1)C(C4)[C@]2(O)C3)C(=O)O (stereo partly specified)"
  MEAS_VALUE: 1.3
- COMPOUND: "N=C(N)NCCC[C@@H](NC(=O)c1cccc2c3c([nH]c12)[C@@H]1Oc2c(O)ccc4c2C12CCN(CC1CC1)C(C4)[C@]2(O)C3)C(=O)O (stereo partly specified)"
  MEAS_VALUE: 1.3
- COMPOUND: "O=C(O)CNC(=O)c1cccc2c3c([nH]c12)[C@@H]1Oc2c(O)ccc4c2C12CCN(CC1CC1)C(C4)[C@]2(O)C3 (stereo partly specified)"
  MEAS_VALUE: 1.5
- COMPOUND: "NCCCC[C@@H](NC(=O)c1cccc2c3c([nH]c12)[C@@H]1Oc2c(O)ccc4c2C12CCN(CC1CC1)C(C4)[C@]2(O)C3)C(=O)O (stereo partly specified)"
  MEAS_VALUE: 1
- COMPOUND: "O=C(O)c1cccc2c3c([nH]c12)[C@@H]1Oc2c(O)ccc4c2C12CCN(CC1CC1)C(C4)[C@]2(O)C3 (stereo partly specified)"
  MEAS_VALUE: 2

====

# STUDY_TARGET: Opioid receptors; delta & kappa (Homo sapiens) (UniProt P41145+P41143)
# EXPERIMENT_DESCRIPTION: Selectivity as the ratio of IC50 value against delta receptor to that of kappa receptor.
# Format: protein assay
Each entry below carries its recorded Selectivity.

- COMPOUND: "O=C(O)CNC(=O)c1cccc2c3c([nH]c12)[C@@H]1Oc2c(O)ccc4c2C12CCN(CC1CC1)C(C4)[C@]2(O)C3 (stereo partly drawn)"
  Selectivity: 30
- COMPOUND: "N=C(N)NCCC[C@@H](NC(=O)c1cccc2c3c([nH]c12)[C@@H]1Oc2c(O)ccc4c2C12CCN(CC1CC1)C(C4)[C@]2(O)C3)C(=O)O (stereo partly drawn)"
  Selectivity: 27
- COMPOUND: "O=C(O)C[C@@H](NC(=O)c1cccc2c3c([nH]c12)[C@@H]1Oc2c(O)ccc4c2C12CCN(CC1CC1)C(C4)[C@]2(O)C3)C(=O)O (stereo partly drawn)"
  Selectivity: 30
